B1: KLHL12 (parent)
chain: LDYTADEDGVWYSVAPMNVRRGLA

Variants of: B1
Test Name: protein stability index of a GFP-peptide fusion (GPS, HEK-293T) (PSI 1-6); higher = more stable;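 note: lentivirally expressed fusions sorted by FACS into six bins by GFP to DsRed ratio, PSI derived from sequencing read proportions per bin multiplied by bin number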
Conditions: c terminus: a fixed tail appended
# protein stability index per entry
Property Measured: protein stability index

Sequence Content | Reading
LDYTADEDGVWYSVAPMNVRRGTA [L23T] | 2.19
LDYTWDEDGVWYSVAPMNVRRGLA [A5W] | 2.46
LDYTADEDGVWYAVAPMNVRRGLA [S13A] | 1.71
LDYTADEDGVWYSVAPMNVPRGLA [R20P] | 1.81
LDYTADFDGVWYSVAPMNVRRGLA [E7F] | 2.55
LGYTADEDGVWYSVAPMNVRRGLA [D2G] | 2.96
LDYTADEDGVWYSVAPMNVRRGHA [L23H] | 2.28
LDYTADEDGVWYSVAPMNTRRGLA [V19T] | 1.91
LDYTADEDGVWYVVAPMNVRRGLA [S13V] | 2.28
LDYTADEDIVWYSVAPMNVRRGLA [G9I] | 1.88
LDYTADEDGQWYSVAPMNVRRGLA [V10Q] | 2.99
LDYTADEDGVKYSVAPMNVRRGLA [W11K] | 3.18
LDYTADEDGVWYSVAPMNKRRGLA [V19K] | 2.65
LDYTADEDKVWYSVAPMNVRRGLA [G9K] | 1.75
LDYTADEDGVWYSIAPMNVRRGLA [V14I] | 1.67
LDYTADYDGVWYSVAPMNVRRGLA [E7Y] | 1.95
LDYTADEDGVWYSSAPMNVRRGLA [V14S] | 2.96
LDETADEDGVWYSVAPMNVRRGLA [Y3E] | 3.6
LDYTADEDGVWYSVAPMNVRRKLA [G22K] | 2.23
LDYTADEDGVWYSVAPMNVHRGLA [R20H] | 1.75
LDYTEDEDGVWYSVAPMNVRRGLA [A5E] | 2.14
LDYTADEDGAWYSVAPMNVRRGLA [V10A] | 3.22
